Test system: Enterococcus faecium
protocol: Antimicrobial activity against vancomycin-resistant Enterococcus faecium assessed as inhibition of microbial growth incubated for 16 to 20 hrs under ambient air condition by broth microdilution assay
Format: functional
cond: time 16-20 hrs
property: MIC (µg/mL)
Numbers only, in µg/mL.

Answered cases to consult:
- compound: "C/C=C1\\NC(=O)[C@H]([C@@H](C)O)NC(=O)c2csc(n2)-c2cc(O)c(-c3nc(C(=O)NC(CNc4ccccc4Br)C(N)=O)cs3)nc2-c2csc(n2)[C@@H]2CSC(=O)c3[nH]c4cccc(c4c3C)COC(=O)[C@H](O)C[C@H](NC(=O)c3csc1n3)c1nc(cs1)C(=O)N2 (some centres not stated)"
  result.units: "µg/mL"
  observed.value: 0.015
- compound: "C/C=C1\\NC(=O)[C@H]([C@@H](C)O)NC(=O)c2csc(n2)-c2cc(O)c(-c3nc(C(=O)NC(CNc4ccc(F)cc4)C(N)=O)cs3)nc2-c2csc(n2)[C@@H]2CSC(=O)c3[nH]c4cccc(c4c3C)COC(=O)[C@H](O)C[C@H](NC(=O)c3csc1n3)c1nc(cs1)C(=O)N2 (some centres not stated)"
  result.units: "µg/mL"
  observed.value: 0.031
- compound: "C/C=C1\\NC(=O)[C@H]([C@@H](C)O)NC(=O)c2csc(n2)-c2cc(O)c(-c3nc(C(=O)NC(CNc4ccc(C)cc4)C(N)=O)cs3)nc2-c2csc(n2)[C@@H]2CSC(=O)c3[nH]c4cccc(c4c3C)COC(=O)[C@H](O)C[C@H](NC(=O)c3csc1n3)c1nc(cs1)C(=O)N2 (some centres not stated)"
  result.units: "µg/mL"
  observed.value: 0.031
- compound: "C/C=C1\\NC(=O)[C@H]([C@@H](C)O)NC(=O)c2csc(n2)-c2cc(O)c(-c3nc(C(=O)NC(CNc4cccc(C(F)(F)F)c4)C(N)=O)cs3)nc2-c2csc(n2)[C@@H]2CSC(=O)c3[nH]c4cccc(c4c3C)COC(=O)[C@H](O)C[C@H](NC(=O)c3csc1n3)c1nc(cs1)C(=O)N2 (some centres not stated)"
  result.units: "µg/mL"
  observed.value: 0.031
- compound: "C/C=C1\\NC(=O)[C@H]([C@@H](C)O)NC(=O)c2csc(n2)-c2cc(O)c(-c3nc(C(=O)NC(CNc4ccc(C(F)(F)F)cc4)C(N)=O)cs3)nc2-c2csc(n2)[C@@H]2CSC(=O)c3[nH]c4cccc(c4c3C)COC(=O)[C@H](O)C[C@H](NC(=O)c3csc1n3)c1nc(cs1)C(=O)N2 (some centres not stated)"
  result.units: "µg/mL"
  observed.value: 0.015
- compound: "C=C(NC(=O)c1csc(-c2nc3c(cc2O)-c2nc(cs2)C(=O)N[C@@H]([C@@H](C)O)C(=O)N/C(=C\\C)c2nc(cs2)C(=O)N[C@H]2C[C@@H](O)C(=O)OCc4cccc5[nH]c(c(C)c45)C(=O)SC[C@H](NC(=O)c4csc2n4)c2nc-3cs2)n1)C(N)=O"
  result.units: "µg/mL"
  observed.value: 0.031

# context switch: different compound, same MIC
Query :: Quick one: MIC for C/C=C1\NC(=O)[C@H]([C@@H](C)O)NC(=O)c2csc(n2)-c2cc(O)c(-c3nc(C(=O)NC(CNc4ccccc4I)C(N)=O)cs3)nc2-c2csc(n2)[C@@H]2CSC(=O)c3[nH]c4cccc(c4c3C)COC(=O)[C@H](O)C[C@H](NC(=O)c3csc1n3)c1nc(cs1)C(=O)N2 (some centres not stated) ?
Result :: 0.015
